# Read-out: ABC Transporter (ABCB11), ABCB11 (gene 8647)
# Method Summary: LTEA_HepaRG_ABCB11: Life Technologies and Expression Analysis (LTEA) Assay for ABC Transporter (ABCB11) using HepaRG (AID 2283463)
# Assay Conditions: mRNA level, 48 h; actives raise or lower the signal
The source made the active and inactive calls. How the source made its calls: active means hit-call score of the fitted dose curve at least 0.9, where 1 is the maximum; inactive means score below 0.9.
The reply should name one outcome from active, inactive

>>> answer_label("CN(C)c1nc(=O)n(C2CCCCC2)c(=O)n1C")
"inactive"
>>> answer_label("Cc1cc(O)ccc1Cl")
"inactive"
>>> answer_label("CCC(C)c1cc([N+](=O)[O-])cc([N+](=O)[O-])c1O (configuration not stated)")
"active"
>>> answer_label("ClC1=C(Cl)[C@]2(Cl)[C@@H]3[C@H]4C[C@H]([C@@H]5O[C@H]45)[C@@H]3[C@@]1(Cl)C2(Cl)Cl")
"active"
>>> answer_label("CC#Cc1cc(C)nc(Nc2ccccc2)n1")
"active"

Identify the outcome logged in this assay for the molecule shown: ClC(Cl)=C(c1ccc(Cl)cc1)c1ccc(Cl)cc1
inactive

Identify the outcome logged in this assay for the molecule shown: Clc1ccc(Cl)cc1
inactive

Identify the outcome logged in this assay for the molecule shown: Cc1ccccc1[N+](=O)[O-]
inactive

----------
# Method Summary: ACEA_AR_agonist_AUC_viability: ACEA Biosciences xCELLigence Real-Time Cell Analysis on Androgen Receptor Agonism for Viability (AID 2283775);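 on AC50: viability read 80 hours after compound addition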
Records with an inconclusive call do not appear. The source made the active and inactive calls. Rule for the calls: active = hit-call score of the fitted dose curve at least 0.9, where 1 is the maximum; inconclusive = response in the unintended direction; inactive = score below 0.9.
Reported Endpoint: AC50

Worked cases, AC50 given:
>>> recorded_value("O=S(=O)(O)C(F)(F)C(F)(F)C(F)(F)C(F)(F)C(F)(F)C(F)(F)F")
"inactive"
>>> recorded_value("O=C(NC(=O)c1c(F)cccc1F)Nc1cc(Cl)c(OC(F)(F)C(F)F)c(Cl)c1")
"50 µM (active)"
>>> recorded_value("Cc1cc(-c2ccc(N)c(C)c2)ccc1N")
"inactive"
>>> recorded_value("CCCCCCCCCc1ccc(O)cc1")
"22.9 µM (active)"
>>> recorded_value("O=C(O)C(F)(F)C(F)(F)C(F)(F)C(F)(F)C(F)(F)C(F)(F)C(F)(F)C(F)(F)F")
"74.2 µM (active)"

Would you kindly look at the next entry?
Please give measured AC50 of the following entry: ClC1=C(Cl)[C@]2(Cl)[C@@H]3[C@H]4C[C@H]([C@@H]5O[C@H]45)[C@@H]3[C@@]1(Cl)C2(Cl)Cl
24.1 µM (active)

----------
# Read-out: Glutathione S-Transferase (GSTA2), GSTA2 (gene 2939)
# Method Summary: LTEA_HepaRG_GSTA2: Life Technologies and Expression Analysis (LTEA) Assay for Glutathione S-Transferase (GSTA2) using HepaRG (AID 2283497)
# Assay Conditions: mRNA level, 48 h; actives raise or lower the signal
Activity calls are given as the source filed them. Rule for the calls: active = hit-call score of the fitted dose curve at least 0.9, where 1 is the maximum; inactive = score below 0.9.
The reply should name one outcome from label 1 = active, label 0 = inactive

Answered cases to consult:
>>> answer_label("ClC(Cl)=C(c1ccc(Cl)cc1)c1ccc(Cl)cc1")
"label 0"
>>> answer_label("O=C(NC(=O)c1cc(F)c(F)cc1Cl)Nc1cc(F)ccc1N1CCC(C(=O)O)CC1")
"label 0"
>>> answer_label("Cc1cc2c3c(c1)C(c1ccccc1)=N[C@@H](NC(=O)c1ccncc1)C(=O)N3CC2")
"label 0"

Attention now turns to another entry.
Identify the outcome logged in this assay for the compound shown: Oc1ccc(C(c2ccc(O)cc2)(C(F)(F)F)C(F)(F)F)cc1
label 1
